Tested system: Mcl-1 protein (Homo sapiens)
Sequence (Q07820 whole entry): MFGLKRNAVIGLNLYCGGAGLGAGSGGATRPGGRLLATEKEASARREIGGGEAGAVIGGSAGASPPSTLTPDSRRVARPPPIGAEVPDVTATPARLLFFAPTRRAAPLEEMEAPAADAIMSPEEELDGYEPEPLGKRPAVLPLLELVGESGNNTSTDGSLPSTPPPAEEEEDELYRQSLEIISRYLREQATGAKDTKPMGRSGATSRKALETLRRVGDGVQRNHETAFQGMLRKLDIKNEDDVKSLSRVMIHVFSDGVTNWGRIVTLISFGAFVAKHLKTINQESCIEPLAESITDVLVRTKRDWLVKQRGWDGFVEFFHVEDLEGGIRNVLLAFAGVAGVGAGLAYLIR
Assay overview: Inhibition of Mcl-1 by the fluorescence polarisation technique (Method 1 or Method 2)
Format: binding
Measurement conditions: fluorescence polarisation, Fluorescein labelled ligand; Method 1 (not underlined) or Method 2 (underlined); read-out: IC50 (μM) Mcl-1 FP
# T = IC50 below 0.9 µM (exclusive); F = IC50 at/above 0.9 µM

COc1ccccc1CC(Nc1ncnc2sc(-c3ccc(F)o3)c(-c3ccc(OCCN4CCN(C)CC4)c(Cl)c3C)c12)C(=O)O (centres unmarked)    T
Cc1c(-c2c(-c3ccc(F)o3)sc3ncnc(NC(Cc4ccccc4OCC(F)(F)F)C(=O)O)c23)ccc(OCCN2CCN(C)CC2)c1Cl (centres unmarked)    T
CC=Cc1sc2ncnc(NC(Cc3ccccc3)C(=O)O)c2c1-c1cccc2ccccc12 (centres unmarked) [Example 108]    T
CC#Cc1sc2ncnc(NC(Cc3ccccc3OCc3ccnc(-c4ccccc4OC)n3)C(=O)OCC)c2c1-c1ccc(OCCN(C)C)c(Cl)c1C (centres unmarked)    F
CCc1sc2ncnc(NC(Cc3ccccc3)C(=O)O)c2c1-c1cccc2c1c(Cl)cn2CCN1CCN(C)CC1 (centres unmarked) [Example 239]    F

Task: Is it true that IC50 reported for CCc1sc2ncnc(NC(Cc3ccccc3Br)C(=O)O)c2c1-c1cccc(Cl)c1C (centres unmarked) is less than 0.9 µM?
Result: T

Task: Is it true that IC50 reported for CCn1nccc1COc1ccccc1CC(Nc1ncnc2sc(-c3ccc(F)o3)c(-c3ccc(OCCN4CCN(C)CC4)c(Cl)c3C)c12)C(=O)O (centres unmarked) is less than 0.9 µM?
Result: T

Task: Is it true that IC50 reported for COc1ccccc1-c1nccc(COc2ccccc2C[C@@H](Nc2ncnc3sc(-c4ccc(F)cc4)c(-c4c(C)c(Cl)c(OCCN5CCN(C)CC5)c(Cl)c4C)c23)C(=O)O)n1 is less than 0.9 µM?
Result: T

Task: Is it true that IC50 reported for Cc1c(-c2c(-c3ccc(F)o3)sc3ncnc(NC(Cc4ccccc4O)C(=O)O)c23)ccc(OCCN(C)C)c1Cl (centres unmarked) is less than 0.9 µM?
Result: T

Task: Is it true that IC50 reported for CCc1sc2ncnc(N[C@H](Cc3ccccc3)C(=O)O)c2c1-c1cccc2cc[nH]c12 (single isomer, unassigned) [Example 71] is less than 0.9 µM?
Result: F

Cited source for all entries: patent US10457687B2
